Measured values drawn from ChEMBL document CHEMBL3286354 for this set.

Target: CDK9/cyclin T1 (Homo sapiens, UniProt P50750)
Sequence (O60563 whole entry): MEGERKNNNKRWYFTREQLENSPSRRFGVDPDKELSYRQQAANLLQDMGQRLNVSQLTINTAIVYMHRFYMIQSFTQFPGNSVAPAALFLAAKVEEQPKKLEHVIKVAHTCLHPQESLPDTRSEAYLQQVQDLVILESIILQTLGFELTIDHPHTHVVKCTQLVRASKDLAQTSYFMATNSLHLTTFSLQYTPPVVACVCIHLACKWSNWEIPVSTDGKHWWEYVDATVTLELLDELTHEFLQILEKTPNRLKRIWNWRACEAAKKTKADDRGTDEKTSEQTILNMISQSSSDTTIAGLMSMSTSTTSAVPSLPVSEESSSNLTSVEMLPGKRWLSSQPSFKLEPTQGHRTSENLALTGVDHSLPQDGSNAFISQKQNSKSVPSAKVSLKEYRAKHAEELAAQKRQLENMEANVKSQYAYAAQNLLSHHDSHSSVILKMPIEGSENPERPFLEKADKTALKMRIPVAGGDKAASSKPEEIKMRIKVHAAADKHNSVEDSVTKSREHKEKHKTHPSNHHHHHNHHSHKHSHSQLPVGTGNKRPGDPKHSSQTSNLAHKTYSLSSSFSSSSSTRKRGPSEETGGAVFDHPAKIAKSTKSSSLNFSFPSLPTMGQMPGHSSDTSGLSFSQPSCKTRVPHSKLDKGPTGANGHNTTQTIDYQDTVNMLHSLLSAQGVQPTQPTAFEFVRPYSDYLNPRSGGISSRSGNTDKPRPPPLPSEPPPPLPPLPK
Sequence (P50750 whole entry): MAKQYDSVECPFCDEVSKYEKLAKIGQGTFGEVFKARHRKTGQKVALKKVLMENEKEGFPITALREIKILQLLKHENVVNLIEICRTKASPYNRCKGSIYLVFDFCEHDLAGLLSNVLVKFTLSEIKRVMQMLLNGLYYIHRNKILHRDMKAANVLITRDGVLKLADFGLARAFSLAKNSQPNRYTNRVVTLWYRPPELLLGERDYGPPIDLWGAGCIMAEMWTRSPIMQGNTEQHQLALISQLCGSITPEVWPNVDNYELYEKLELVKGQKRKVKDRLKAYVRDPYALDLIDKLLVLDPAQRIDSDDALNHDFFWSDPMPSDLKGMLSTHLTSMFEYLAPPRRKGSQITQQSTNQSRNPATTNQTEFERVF
Assay: Inhibition of human recombinant CDK9/cyclin T
IC50 for assorted compounds
measured.attribute: IC50

INSERT INTO results (record_smiles, reported) VALUES
  ('O=C1Cc2c([nH]c3c(/C=C/C(=O)c4ccccc4)cccc23)-c2cccnc2N1', '> 10 µM'),
  ('O=C(/C=C/c1cccc2c3c([nH]c12)-c1cccnc1NC(=O)C3)Nc1ccccc1', '> 10 µM');

###

Target: Dual specificity tyrosine-phosphorylation-regulated kinase 1A (Homo sapiens, UniProt Q13627)
Experiment: Inhibition of human recombinant DYRK1A
pIC50: −log10 of the molar value.
pIC50 for assorted molecules
measured.attribute: pIC50

INSERT INTO results (record_smiles, reported) VALUES
  ('O=C1Cc2c([nH]c3c(/C=C/C(=O)c4ccccc4)cccc23)-c2cccnc2N1', '< 5.00'),
  ('O=C(/C=C/c1cccc2c3c([nH]c12)-c1cccnc1NC(=O)C3)Nc1ccccc1', '< 5.00');

###

pIC50 for assorted compounds
Target: Cyclin-dependent kinase 2/cyclin E1 (Homo sapiens, UniProt P24941)
Assay: Inhibition of human recombinant CDK2/cyclin E
pIC50: −log10 of the molar value.
measured.attribute: pIC50

INSERT INTO results (record_smiles, reported) VALUES
  ('O=C1Cc2c([nH]c3c(/C=C/C(=O)c4ccccc4)cccc23)-c2cccnc2N1', '< 5.00'),
  ('O=C(/C=C/c1cccc2c3c([nH]c12)-c1cccnc1NC(=O)C3)Nc1ccccc1', '< 5.00');

###

Target: Cyclin-dependent kinase 5/CDK5 activator 1 (Homo sapiens)
Sequence (Q00535 whole entry): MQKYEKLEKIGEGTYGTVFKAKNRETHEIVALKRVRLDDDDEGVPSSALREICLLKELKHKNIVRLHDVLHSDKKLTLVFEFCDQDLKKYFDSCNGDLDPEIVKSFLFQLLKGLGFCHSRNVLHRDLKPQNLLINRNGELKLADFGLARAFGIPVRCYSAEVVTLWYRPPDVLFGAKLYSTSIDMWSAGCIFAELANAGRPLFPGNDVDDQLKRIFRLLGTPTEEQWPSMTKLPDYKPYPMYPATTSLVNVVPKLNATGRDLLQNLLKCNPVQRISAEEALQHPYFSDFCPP
Sequence (Q15078 whole entry, further chain): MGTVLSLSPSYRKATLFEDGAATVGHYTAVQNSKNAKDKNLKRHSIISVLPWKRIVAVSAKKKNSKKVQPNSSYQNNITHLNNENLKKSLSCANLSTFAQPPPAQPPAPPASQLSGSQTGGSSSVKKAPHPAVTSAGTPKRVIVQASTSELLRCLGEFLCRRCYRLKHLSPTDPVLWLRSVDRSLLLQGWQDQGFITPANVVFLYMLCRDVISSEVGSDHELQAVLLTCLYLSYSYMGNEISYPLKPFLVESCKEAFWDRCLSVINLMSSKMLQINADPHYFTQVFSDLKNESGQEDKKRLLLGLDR
Assay: Inhibition of human recombinant CDK5/p25
pIC50: −log10 of the molar value.
measured.attribute: pIC50

INSERT INTO measurements (record_smiles, measured_attribute, reported) VALUES
  ('O=C1Cc2c([nH]c3c(/C=C/C(=O)c4ccccc4)cccc23)-c2cccnc2N1', 'pIC50', '< 5.00'),
  ('O=C(/C=C/c1cccc2c3c([nH]c12)-c1cccnc1NC(=O)C3)Nc1ccccc1', 'pIC50', '< 5.00');

###

pEC50 for assorted compounds
System: Trypanosoma brucei brucei
Experiment: Antitrypanosomal activity against Trypanosoma brucei brucei 427 assessed as viability after 24 hrs by Flow cytometry
Assay type: functional, organism-based
Conditions: Trypanosoma brucei, 427, 24 h
pEC50: −log10 of the molar value.
measured.attribute: pEC50

INSERT INTO assay_data (record_smiles, reported) VALUES
  ('O=C(/C=C/c1cccc2c3c([nH]c12)-c1cccnc1NC(=O)C3)Nc1ccccc1', 6.92),
  ('O=C1Cc2c([nH]c3c(/C=C/C(=O)c4ccccc4)cccc23)-c2cccnc2N1', 6.74),
  ('O=C(/C=C/c1ccc2[nH]c3c(c2c1)CC(=O)Nc1ncccc1-3)Nc1ccccc1', 5.60),
  ('O=C(/C=C/c1cccc2c3c([nH]c12)-c1cccnc1NC(=O)C3)NCc1ccccc1', 6.35);

###

Molecular target: Trypanothione synthetase (Trypanosoma brucei brucei) (UniProt Q86MC2)
Sequence (Q86MC2 as listed by the source): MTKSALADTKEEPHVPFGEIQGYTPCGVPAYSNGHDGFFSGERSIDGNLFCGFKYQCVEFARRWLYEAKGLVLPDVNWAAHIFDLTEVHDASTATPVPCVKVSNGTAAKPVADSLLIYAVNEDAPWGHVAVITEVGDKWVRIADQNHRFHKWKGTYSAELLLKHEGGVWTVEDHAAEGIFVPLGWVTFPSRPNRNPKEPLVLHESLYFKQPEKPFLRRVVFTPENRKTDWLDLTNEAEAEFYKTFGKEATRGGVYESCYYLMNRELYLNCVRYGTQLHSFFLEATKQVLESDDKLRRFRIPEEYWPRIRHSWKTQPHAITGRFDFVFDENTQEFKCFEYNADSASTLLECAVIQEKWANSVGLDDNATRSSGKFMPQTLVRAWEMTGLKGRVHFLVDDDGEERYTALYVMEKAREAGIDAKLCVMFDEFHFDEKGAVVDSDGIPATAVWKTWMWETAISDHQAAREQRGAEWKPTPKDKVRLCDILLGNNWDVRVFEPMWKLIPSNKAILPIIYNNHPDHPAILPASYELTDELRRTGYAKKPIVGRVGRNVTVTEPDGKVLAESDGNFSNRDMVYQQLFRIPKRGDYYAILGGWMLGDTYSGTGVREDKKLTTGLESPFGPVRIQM
Test: Inhibition of Trypanosoma brucei brucei trypanothione synthetase assessed as residual activity at 30 uM after 15 mins incubation by Biomol Green phosphate release absorbance assay
Activity for assorted compounds
measured.attribute: Activity (%)

INSERT INTO assay_data (record_smiles, measured_attribute, reported) VALUES
  ('CCN(CC)C(=O)/C=C/c1cccc2c3c([nH]c12)-c1cccnc1NC(=O)C3', 'Activity', 102),
  ('O=C1Cc2c([nH]c3ccc(/C=C/C(=O)c4ccco4)cc23)-c2cccnc2N1', 'Activity', 90.2),
  ('O=C1Cc2c([nH]c3ccc(/C=C/C(=O)c4ccccc4)cc23)-c2cccnc2N1', 'Activity', 61.9),
  ('O=C1Cc2c([nH]c3c(/C=C/C(=O)c4ccc(Cl)cc4)cccc23)-c2cccnc2N1', 'Activity', 73.2),
  ('CCN(CC)C(=O)/C=C/c1ccc2[nH]c3c(c2c1)CC(=O)Nc1ncccc1-3', 'Activity', 91.5);

###

Tested on: Trypanosoma brucei brucei
Experiment: Antitrypanosomal activity against Trypanosoma brucei brucei 427 assessed as viability at 5 uM after 24 hrs by Flow cytometry relative to control
Format: functional
# label = True if Activity >= 40% else False

INSERT INTO results (record_smiles, assayed_system, category_label) VALUES
  ('O=C(/C=C/c1cccc2c3c([nH]c12)-c1cccnc1NC(=O)C3)NCc1ccccc1', 'Trypanosoma brucei brucei', 'False'),
  ('O=C1Cc2c([nH]c3ccc(/C=C/C(=O)c4ccc(Cl)cc4)cc23)-c2cccnc2N1', 'Trypanosoma brucei brucei', 'False'),
  ('O=C(/C=C/c1cccc2c3c([nH]c12)-c1cccnc1NC(=O)C3)Nc1ccccc1', 'Trypanosoma brucei brucei', 'False'),
  ('O=C1Cc2c([nH]c3c(/C=C/C(=O)c4ccc(Cl)cc4)cccc23)-c2cccnc2N1', 'Trypanosoma brucei brucei', 'True'),
  ('COc1ccc(C(=O)/C=C/c2ccc3[nH]c4c(c3c2)CC(=O)Nc2ncccc2-4)cc1', 'Trypanosoma brucei brucei', 'True'),
  ('O=C(/C=C/c1ccc2[nH]c3c(c2c1)CC(=O)Nc1ncccc1-3)Nc1ccccc1', 'Trypanosoma brucei brucei', 'False'),
  ('O=C1Cc2c([nH]c3ccc(/C=C/C(=O)c4ccccc4)cc23)-c2cccnc2N1', 'Trypanosoma brucei brucei', 'True'),
  ('O=C(/C=C/c1ccc2[nH]c3c(c2c1)CC(=O)Nc1ncccc1-3)NCc1ccccc1', 'Trypanosoma brucei brucei', 'False'),
  ('O=C1Cc2c([nH]c3c(/C=C/C(=O)c4ccccc4)cccc23)-c2cccnc2N1', 'Trypanosoma brucei brucei', 'False');

###

Biological target: Trypanothione synthetase (Trypanosoma brucei brucei)
Experiment: Inhibition of Trypanosoma brucei brucei trypanothione synthetase assessed as residual activity at 30 uM after 15 mins incubation by Biomol Green phosphate release absorbance assay
measured.attribute: Activity

INSERT INTO measurements (record_smiles, reported) VALUES
  ('O=C1Cc2c([nH]c3c(I)cccc23)-c2cccnc2N1', '112%'),
  ('O=C(/C=C/c1cccc2c3c([nH]c12)-c1cccnc1NC(=O)C3)Nc1ccccc1', '94.6%'),
  ('O=C(/C=C/c1ccc2[nH]c3c(c2c1)CC(=O)Nc1ncccc1-3)NCc1ccccc1', '67.5%'),
  ('O=C(/C=C/c1cccc2c3c([nH]c12)-c1cccnc1NC(=O)C3)NCc1ccccc1', '81.8%'),
  ('O=C1Cc2c([nH]c3ccc(I)cc23)-c2cccnc2N1', '96.7%'),
  ('COc1ccc(C(=O)/C=C/c2cccc3c4c([nH]c23)-c2cccnc2NC(=O)C4)cc1', '80.4%'),
  ('O=C(/C=C/c1ccc2[nH]c3c(c2c1)CC(=O)Nc1ncccc1-3)Nc1ccccc1', '68.1%'),
  ('O=C1Cc2c([nH]c3ccc(/C=C/C(=O)c4ccc(Cl)cc4)cc23)-c2cccnc2N1', '79.8%'),
  ('O=C1Cc2c([nH]c3c(/C=C/C(=O)c4ccccc4)cccc23)-c2cccnc2N1', '91.1%'),
  ('COc1ccc(C(=O)/C=C/c2ccc3[nH]c4c(c3c2)CC(=O)Nc2ncccc2-4)cc1', '77.6%');

###

Tested on: Trypanosoma brucei brucei
Experiment: Antitrypanosomal activity against Trypanosoma brucei brucei 427 assessed as viability at 30 uM after 24 hrs by Flow cytometry relative to control
Assay type: functional
measured.attribute: Activity (%)

INSERT INTO measurements (record_smiles, measured_attribute, readout_unit, reported) VALUES
  ('COc1ccc(C(=O)/C=C/c2cccc3c4c([nH]c23)-c2cccnc2NC(=O)C4)cc1', 'Activity', '%', 79.9),
  ('O=C1Cc2c([nH]c3ccc(/C=C/C(=O)c4ccco4)cc23)-c2cccnc2N1', 'Activity', '%', 21.9),
  ('CCN(CC)C(=O)/C=C/c1cccc2c3c([nH]c12)-c1cccnc1NC(=O)C3', 'Activity', '%', 81.6),
  ('O=C1Cc2c([nH]c3c(I)cccc23)-c2cccnc2N1', 'Activity', '%', 61.3),
  ('CCN(CC)C(=O)/C=C/c1ccc2[nH]c3c(c2c1)CC(=O)Nc1ncccc1-3', 'Activity', '%', 22.1),
  ('O=C1Cc2c([nH]c3ccc(I)cc23)-c2cccnc2N1', 'Activity', '%', 72.1);
